Test: Study of pharmacokinetics in rats
Type: in vivo
Conditions: rat, po; male SD rats, intragastrical gavage, 30 mg/kg, plasma
endpoint: half-life (h)

Illustrative cases are given below, each with its answer.
[2H]C([2H])([2H])NC(=O)c1ccc(NC(=O)[C@H](CC)n2cc(OC([2H])([2H])[2H])c(-c3cc(Cl)ccc3-n3cc(C(F)(F)F)nn3)cc2=O)cc1F [Compound 27] : 4.01
CC[C@@H](C(=O)Nc1ccc(C(=O)O)c(Cl)c1)n1cc(OC)c(-c2cc(Cl)ccc2-n2cc(C(F)(F)F)nn2)cc1=O [Compound 2] : 7.75
[2H]C([2H])([2H])NC(=O)c1ccc(NC(=O)[C@H](CC)n2cc(OC)c(-c3cc(Cl)ccc3-n3cc(C(F)(F)F)nn3)cc2=O)cc1F [Compound 26] : 3.33

1. CC[C@@H](C(=O)Nc1ccc(C(=O)O)c(OC)c1)n1cc(OC)c(-c2cc(Cl)ccc2-n2cc(C(F)(F)F)nn2)cc1=O [Compound 6]
2. [2H]C([2H])([2H])Oc1cn([C@@H](CC)C(=O)Nc2ccc(C(=O)NC)c(F)c2)c(=O)cc1-c1cc(Cl)ccc1-n1cc(C(F)(F)F)nn1 [Compound 25]
Q. Hi there, can you help? I need to know whether 1 or 2 has lower measured half-life. Refer to your chosen entry by its label in the reply.
A. 2
